# test system: CDK4 (Homo sapiens, UniProt P11802)
# Construct: Reaction Biology Corp., Malvern, PA (contract assay service)
# Sequence (P11802 whole entry): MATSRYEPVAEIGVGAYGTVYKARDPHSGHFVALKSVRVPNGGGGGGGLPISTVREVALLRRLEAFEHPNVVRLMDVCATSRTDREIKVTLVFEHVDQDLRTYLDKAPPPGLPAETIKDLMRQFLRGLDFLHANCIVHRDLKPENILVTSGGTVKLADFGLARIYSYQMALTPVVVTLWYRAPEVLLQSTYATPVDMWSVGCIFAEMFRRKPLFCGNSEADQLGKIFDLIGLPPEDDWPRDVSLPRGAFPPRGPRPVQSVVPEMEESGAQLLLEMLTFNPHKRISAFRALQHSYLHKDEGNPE
# Sequence (P24385 whole entry partner): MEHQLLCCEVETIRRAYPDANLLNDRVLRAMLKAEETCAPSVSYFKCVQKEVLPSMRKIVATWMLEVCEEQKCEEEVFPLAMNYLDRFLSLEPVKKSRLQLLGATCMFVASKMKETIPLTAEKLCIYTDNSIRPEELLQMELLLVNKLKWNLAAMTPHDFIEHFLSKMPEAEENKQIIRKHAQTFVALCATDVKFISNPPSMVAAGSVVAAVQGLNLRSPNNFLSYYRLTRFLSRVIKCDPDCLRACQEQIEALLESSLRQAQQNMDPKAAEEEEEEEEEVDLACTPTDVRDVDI
# procedure text: Cyclin dependent kinase inhibition (Reaction Biology Corp.)
# Type: biochemical
# condition summary: 10-point curve, grouped by potency
Entries and their IC50
quantity measured: IC50

{"chemical smiles": "CN(C)C(=O)c1cc2cnc(Nc3ccc(-c4csc5c(=S)cc(N6CCOCC6)oc45)cc3)nc2n1C1CCCC1", "test system": "CDK4 (Homo sapiens, UniProt P11802)", "quantity measured": "IC50", "observed value": "< 100 nM"}
{"chemical smiles": "CN(C)C(=O)c1cc2cnc(Nc3ccc(-c4csc5c(=O)cc(N6CCOCC6)oc45)cn3)nc2n1C1CCCC1", "test system": "CDK4 (Homo sapiens, UniProt P11802)", "quantity measured": "IC50", "observed value": "< 100 nM"}
{"chemical smiles": "Cc1nc2c(F)cc(-c3nc(Nc4ccc(-c5csc6c(=O)cc(N7CCOCC7)oc56)cc4)ncc3F)cc2n1C(C)C", "test system": "CDK4 (Homo sapiens, UniProt P11802)", "quantity measured": "IC50", "observed value": "< 100 nM"}
